Below is a list of entries, each paired with its recorded sandwich binding signal value.
Molecular target: T1, recombinant soluble human TREM2 protein (human TREM2 ECD-FlagHis) (human, UniProt Q9NZC2 19-174)
T1 sequence: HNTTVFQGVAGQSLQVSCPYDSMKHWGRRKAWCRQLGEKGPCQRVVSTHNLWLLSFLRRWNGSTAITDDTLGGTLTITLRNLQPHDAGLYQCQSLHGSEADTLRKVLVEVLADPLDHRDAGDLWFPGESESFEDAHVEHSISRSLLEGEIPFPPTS
Test: Octet BLI binning; competitor: load Ab 16B8
Method: Each of sixteen different anti-TREM2 antibodies produced from hybridomas were quantitated and loaded onto one of the anti-human Fc sensors at 5 μg/mL for 2 minutes (“Load Antibody”). The sensor was then blocked with 100 μg/mL of an irrelevant human IgG2 antibody for 5 minutes. […] Next, each of the sixteen different anti-TREM2 antibodies (“Sandwich Antibody”) was added to the sensor at 5 μg/mL and allowed to bind for 5 minutes. […]
API note: the answer field is a bare number with no unit suffix.

Solved cases below.
24F4 (antibody, human IgG2, V domains shown, human IgG2 from hybridoma) VH: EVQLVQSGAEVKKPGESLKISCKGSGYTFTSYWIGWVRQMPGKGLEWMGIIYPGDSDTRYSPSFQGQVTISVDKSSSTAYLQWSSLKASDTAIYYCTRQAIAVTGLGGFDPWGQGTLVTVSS VL: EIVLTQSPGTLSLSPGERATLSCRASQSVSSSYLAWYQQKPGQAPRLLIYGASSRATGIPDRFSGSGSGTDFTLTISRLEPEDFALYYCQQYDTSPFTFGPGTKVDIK: 0.27
32E3 (antibody, human IgG2, V domains shown, human IgG2 from hybridoma) VH: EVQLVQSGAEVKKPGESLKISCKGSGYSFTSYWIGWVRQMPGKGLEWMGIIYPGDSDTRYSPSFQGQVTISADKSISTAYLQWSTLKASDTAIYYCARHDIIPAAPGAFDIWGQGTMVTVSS VL: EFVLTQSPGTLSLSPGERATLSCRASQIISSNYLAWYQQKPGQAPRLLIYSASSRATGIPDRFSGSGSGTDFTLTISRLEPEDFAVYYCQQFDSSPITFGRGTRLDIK: 0.12

# next binder below
Item under review: 26C10 (antibody, human IgG2, V domains shown, human IgG2 from hybridoma) VH: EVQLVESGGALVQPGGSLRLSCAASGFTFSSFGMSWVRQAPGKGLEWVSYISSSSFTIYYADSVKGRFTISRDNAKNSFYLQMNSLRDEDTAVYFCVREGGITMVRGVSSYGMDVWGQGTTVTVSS VL: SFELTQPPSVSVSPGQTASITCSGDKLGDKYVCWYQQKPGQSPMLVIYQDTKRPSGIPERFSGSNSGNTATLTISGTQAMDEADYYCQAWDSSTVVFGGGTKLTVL . Reported sandwich binding signal?
-0.031
